Data origin, for the record: patent US20180148418A1

Biological target: TNKS2 (Homo sapiens)
Construct: purchased BPS Bioscience, San Diego, USA 80572 (TNKS2 Histone Ribosylation Assay Kit)
Sequence (Q9H2K2 1-1166): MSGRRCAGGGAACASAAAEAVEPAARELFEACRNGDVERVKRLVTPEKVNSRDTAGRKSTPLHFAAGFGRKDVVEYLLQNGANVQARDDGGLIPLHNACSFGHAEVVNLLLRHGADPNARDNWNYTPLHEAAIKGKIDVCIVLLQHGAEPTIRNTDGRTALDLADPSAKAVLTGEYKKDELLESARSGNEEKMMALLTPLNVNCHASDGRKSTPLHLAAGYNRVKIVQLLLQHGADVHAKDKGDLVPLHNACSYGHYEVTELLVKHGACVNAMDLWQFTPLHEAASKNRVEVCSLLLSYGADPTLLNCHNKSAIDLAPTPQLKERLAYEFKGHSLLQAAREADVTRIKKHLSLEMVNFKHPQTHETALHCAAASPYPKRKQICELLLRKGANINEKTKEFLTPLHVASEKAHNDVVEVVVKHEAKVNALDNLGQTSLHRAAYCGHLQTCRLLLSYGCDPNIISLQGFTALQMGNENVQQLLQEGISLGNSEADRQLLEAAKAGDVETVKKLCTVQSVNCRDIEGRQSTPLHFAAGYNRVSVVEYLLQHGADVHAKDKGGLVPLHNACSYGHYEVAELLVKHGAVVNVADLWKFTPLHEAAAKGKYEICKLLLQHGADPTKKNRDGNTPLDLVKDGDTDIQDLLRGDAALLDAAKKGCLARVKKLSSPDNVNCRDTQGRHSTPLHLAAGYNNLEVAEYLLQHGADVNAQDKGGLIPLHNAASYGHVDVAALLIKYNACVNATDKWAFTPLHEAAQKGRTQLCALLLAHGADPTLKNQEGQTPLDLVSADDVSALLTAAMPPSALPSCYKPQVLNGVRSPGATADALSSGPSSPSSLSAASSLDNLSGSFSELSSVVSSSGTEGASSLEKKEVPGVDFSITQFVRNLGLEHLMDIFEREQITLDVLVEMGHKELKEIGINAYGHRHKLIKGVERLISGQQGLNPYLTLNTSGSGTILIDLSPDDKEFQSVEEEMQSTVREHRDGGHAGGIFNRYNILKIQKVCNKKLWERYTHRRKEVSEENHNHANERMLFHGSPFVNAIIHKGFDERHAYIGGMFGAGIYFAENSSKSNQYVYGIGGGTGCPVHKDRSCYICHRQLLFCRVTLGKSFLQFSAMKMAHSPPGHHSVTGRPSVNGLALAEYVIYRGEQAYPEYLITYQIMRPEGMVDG
Test: TNKS2 Assay B (auto-parsylation, [3H]-NAD+ SPA)
Format: biochemical
Details: 6 nM TNKS2, auto-parsylation, over night at room temperature
pIC50: −log10 of the molar value.
readout name: pIC50

>  <compound>
O=C(N[C@H]1CC[C@H](C(=O)Nc2cc(F)c(F)cc2Cl)CC1)c1cnc2cccnn12

>  <pIC50>
7.54

$$$$
>  <compound>
O=C(N[C@H]1CC[C@@]2(CCN(c3ccccc3)C2=O)CC1)c1cnn2cccnc12

>  <pIC50>
6.40

$$$$
>  <compound>
Cc1cc(NC(=O)C23CCC(NC(=O)c4cnn5cccnc45)(CC2)CC3)c(Cl)cc1F

>  <pIC50>
7.17

$$$$

(I) COCC(C)NC(=O)c1nc[nH]c1C(=O)N[C@H]1CC[C@@]2(CCN(c3ccc(F)cc3Cl)C2=O)CC1 (mixture of isomers)
(II) COC(C)(C)CNC(=O)c1nc[nH]c1C(=O)N[C@H]1CC[C@H](C(=O)Nc2ccc(F)cc2Cl)CC1
(III) COCc1cc(C)n2ncc(C(=O)N[C@H]3CC[C@@]4(CCN(c5ccc(F)cc5Cl)C4=O)CC3)c2n1
Provide the items ranked by increasing pIC50. Thanks in advance for listing the labels in the requested order.
II, I, III

====

Target: TNKS2 (Homo sapiens, UniProt Q9H2K2)
Sequence (Q9H2K2 1-1166): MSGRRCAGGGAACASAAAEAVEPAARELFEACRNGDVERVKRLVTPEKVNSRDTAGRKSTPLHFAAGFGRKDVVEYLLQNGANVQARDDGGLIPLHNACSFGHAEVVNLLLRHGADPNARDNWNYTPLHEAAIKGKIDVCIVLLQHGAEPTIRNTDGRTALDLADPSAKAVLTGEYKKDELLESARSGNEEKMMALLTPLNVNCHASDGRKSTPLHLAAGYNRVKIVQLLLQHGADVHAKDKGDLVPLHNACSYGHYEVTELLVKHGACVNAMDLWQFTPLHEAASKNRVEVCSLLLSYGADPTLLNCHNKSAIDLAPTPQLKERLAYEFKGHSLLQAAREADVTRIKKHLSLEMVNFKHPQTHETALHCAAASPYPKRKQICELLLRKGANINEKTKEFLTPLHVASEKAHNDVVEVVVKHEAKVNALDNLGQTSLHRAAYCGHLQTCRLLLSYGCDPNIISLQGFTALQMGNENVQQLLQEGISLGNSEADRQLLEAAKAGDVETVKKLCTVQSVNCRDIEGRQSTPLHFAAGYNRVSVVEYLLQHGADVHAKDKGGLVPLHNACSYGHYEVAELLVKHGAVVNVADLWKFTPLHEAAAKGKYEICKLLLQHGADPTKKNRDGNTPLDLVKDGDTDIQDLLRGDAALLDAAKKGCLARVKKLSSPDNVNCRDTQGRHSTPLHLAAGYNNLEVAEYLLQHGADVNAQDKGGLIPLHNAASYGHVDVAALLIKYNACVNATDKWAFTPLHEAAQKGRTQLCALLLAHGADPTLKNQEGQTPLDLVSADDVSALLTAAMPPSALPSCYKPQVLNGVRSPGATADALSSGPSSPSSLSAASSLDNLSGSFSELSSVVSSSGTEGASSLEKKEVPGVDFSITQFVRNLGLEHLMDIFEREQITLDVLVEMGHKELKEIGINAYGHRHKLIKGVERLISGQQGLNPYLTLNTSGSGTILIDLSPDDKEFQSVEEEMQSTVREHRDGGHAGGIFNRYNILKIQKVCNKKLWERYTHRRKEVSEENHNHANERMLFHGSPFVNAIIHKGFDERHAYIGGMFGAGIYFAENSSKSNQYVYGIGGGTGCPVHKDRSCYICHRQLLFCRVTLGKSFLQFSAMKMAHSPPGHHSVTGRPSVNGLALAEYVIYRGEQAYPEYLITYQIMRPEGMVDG
pIC50: −log10 of the molar value.
readout name: pIC50

Field: example entries. Status: answers known.
>  <compound>
O=C(N[C@H]1CC[C@H](C(=O)Nc2ccc(F)cc2Cl)CC1)c1cnn2ccc(N3CCCC3)nc12 [Example 108]

>  <pIC50>
7.22

$$$$
>  <compound>
CC(C)NC(=O)c1nc[nH]c1C(=O)N[C@H]1CC[C@@]2(CCN(c3cc(F)c(F)cc3Cl)C2=O)CC1 [Example 198]

>  <pIC50>
8.51

$$$$
>  <compound>
CNC(=O)c1nc[nH]c1C(=O)N[C@H]1CC[C@H](C(=O)Nc2c(F)cc(F)cc2Cl)CC1 [Example 6]

>  <pIC50>
7.22

$$$$
>  <compound>
CC(C)NC(=O)c1nc[nH]c1C(=O)N[C@H]1CC[C@@]2(CCN(c3ccc(F)cc3Cl)C2=O)CC1 [Example 162]

>  <pIC50>
8.09

$$$$
>  <compound>
O=C(N[C@H]1CC[C@@]2(CCN(c3cccs3)C2=O)CC1)c1cnn2cccnc12 [Example 361]

>  <pIC50>
5.41

$$$$
>  <compound>
Cc1c(C(C)N(C)C)cnc2c(C(=O)N[C@H]3CC[C@H](C(=O)Nc4ccc(F)cc4Cl)CC3)cnn12 (single isomer, unassigned) [Example 56]

>  <pIC50>
6.43

$$$$
>  <compound>
CNC(=O)c1nc[nH]c1C(=O)N[C@H]1CC[C@H](C(=O)Nc2ccc(F)cc2)CC1 [Example 8]

>  <pIC50>
5.64

$$$$
>  <compound>
CN1CC(NC(=O)c2nc[nH]c2C(=O)N[C@H]2CC[C@@]3(CCN(c4ccc(F)cc4Cl)C3=O)CC2)C1 [Example 187]

>  <pIC50>
8.37

$$$$

(1) CNC(=O)c1[nH]cnc1C(=O)N[C@@H]1CC[C@@H](C(=O)Nc2ccc(F)cc2Cl)CC1(F)F (stereo in doubt) [Example 32]
(2) Cc1cc(N2CCC[C@]3(CC[C@@H](NC(=O)c4[nH]cnc4C(=O)N4CC5(COC5)C4)CC3)C2=O)c(Cl)cc1F [Example 311]
I'm curious, which of these has a smaller pIC50 number: 1 or 2 ? // respond with label for picked entry
1

====

target: TNKS2 (Homo sapiens)
pIC50: −log10 of the molar value.
readout name: pIC50

Field: example entries. Status: answers known.
>  <chemical smiles>
Cc1ccnc2c(C(=O)N[C@H]3CC[C@@]4(CCN(c5ccccc5Cl)C4=O)CC3)cnn12

>  <pIC50>
7.96

$$$$
>  <chemical smiles>
CCNC(=O)c1nc[nH]c1C(=O)N[C@H]1CC[C@@]2(CCCN(c3cc(F)c(F)cc3Cl)C2=O)CC1

>  <pIC50>
8.06

$$$$
>  <chemical smiles>
O=C(N[C@H]1CC[C@@]2(CCN(c3ccc(F)cc3Cl)C2=O)CC1)c1cnn2ccc(N3CCOCC3)nc12

>  <pIC50>
8.42

$$$$
>  <chemical smiles>
CCNC(=O)c1nc[nH]c1C(=O)N[C@H]1CC[C@@]2(CCN(c3cc(F)c(F)cc3Cl)C2=O)CC1

>  <pIC50>
8.68

$$$$
>  <chemical smiles>
Cc1cc(N2CC[C@]3(CC[C@@H](NC(=O)c4[nH]cnc4C(=O)N4CCN(C)CC4)CC3)C2=O)c(Cl)cc1F

>  <pIC50>
6.82

$$$$

(a) N#Cc1cc(F)cc(Cl)c1NC(=O)[C@H]1CC[C@H](NC(=O)c2cnn3cccnc23)CC1
(b) Cc1cc(N2CC[C@]3(CC[C@@H](NC(=O)c4[nH]cnc4C(=O)N4CC5(COC5)C4)CC3)C2=O)c(Cl)cc1F
I'm curious, which of these has a smaller pIC50 number: a or b ? // respond with label for picked entry
a
(a: 6.85, b: 8.10)
